// values below are reported OD
# Assayed system: guinea pig IL-17A (guinea pig)
# Protocol notes: ELISA, coated IL-17A
Return type: number; implicit unit OD.

24G10 (VHH, Class 3) VHH: EVQLVESGGGLVQAGGSLRLSCGAAGGTFSSYATGWFRQAPGKEREFVAVFRWSDSHTAYADSVKGRFTISRDGAKNTLYLQMSSLKPEDTAIYYCTTATRPGEWDYWGQGTQVTVSS :: 0.008
08H01 (VHH, Class 3) VHH: EVQLVESGGGLVQAGGSLRLSCGASGGTFSSYATGWFRQAPGKEREFVAVLRWSDSHTAYADSVEGRFTISRDGAKNTVYLQMSSLKPEDTAIYYCTTGTRPGEWHYWGQGTQVTVSS :: 0.007
07B09 (VHH, Class 3) VHH: EVQLVESGGGLVQAGGSLRLSCGASGGTFSSYATGWFRQAPGKEREFVAVLRWSDGHTAYADSVKGRFTISRDGAKNTMYLQMSSLKPEDTAIYYCTTATRPGEWDYWGQGTQVTVSS :: 0.009

For the binder 06E11 (VHH, Class 3) VHH: EVQLVESGGGLVQAGGSLRLSCPVSGRAFSRGRLGWFRQAPGKEREFVAVAHWSGAITSYADSVKGRFTFSRDNAKNTMNLQMNSLKPEDTAVYYCAADSETSGNWVYWGQGTQVTVSS , what OD is on record? 0.006
